Redroot pigweed plant response rating (0 to 10 scale): recorded values
Test system: pigweed
Experiment: Test B pre/postemergence pigweed
Assay type: in vivo, Amaranthus retroflexus
Conditions: Preemergence, Rate 250 g/ha
Method: […] At the same time, these crop and weed species were also treated with postemergence applications of test chemicals formulated in the same manner. […] Treated plants and controls were maintained in a greenhouse for twelve to sixteen days, after which all species were compared to controls and visually evaluated. […]
No unit in the answer, only the number.

>  <STRUCTURE_SMILES>
CC(C)N(C(=O)n1oc(=O)n(COCc2ccccc2)c1=O)c1ccc(F)cc1F

>  <STUDY_SYSTEM>
pigweed

>  <OBSERVED_RESULT>
0

$$$$
>  <STRUCTURE_SMILES>
CC(C)N(C(=O)n1oc(=O)n(C[Si](C)(C)C)c1=O)c1ccccc1

>  <STUDY_SYSTEM>
pigweed

>  <OBSERVED_RESULT>
0

$$$$

Task: Checklist item: Redroot pigweed plant response rating (0 to 10 scale) tested on pigweed, entry CC(C)N(C(=O)n1oc(=O)n(CCCCF)c1=O)c1ccc(F)cc1F , value?
Result: 10

Task: Checklist item: Redroot pigweed plant response rating (0 to 10 scale) tested on pigweed, entry CC(C)N(C(=O)n1oc(=O)n(CCCC(F)(F)F)c1=O)c1ccc(F)cc1F , value?
Result: 4

---

Nutsedge plant response rating: recorded values
Test system: purple nutsedge
Assay: Test B pre/postemergence purple nutsedge
Type: in vivo, Cyperus rotundus
Settings: Preemergence, Rate 500 g/ha; scale 0 to 10 (0 no effect, 10 complete control)
No unit in the answer, only the number.

Task: Item COc1nc(OC)nc(N(C(=O)n2oc(=O)n(-c3ccccc3C)c2=O)C(C)C)n1 [Compound 181] has what recorded Nutsedge plant response rating?
Result: 0

Task: Item CC(C)N(C(=O)n1oc(=O)n([C@H](C)c2ccccc2)c1=O)c1ccc(F)cc1 [Compound 179] has what recorded Nutsedge plant response rating?
Result: 10

Task: Item CC(C)N(C(=O)n1oc(=O)n(C(C)C)c1=O)c1ccc(Cl)cc1 [Compound 114] has what recorded Nutsedge plant response rating?
Result: 0

Task: Item C=CCn1c(=O)on(C(=O)N(c2ccc(Cl)cc2)C(C)C)c1=O [Compound 105] has what recorded Nutsedge plant response rating?
Result: 0

---

Test system: wild oat
Experiment: Test B pre/postemergence wild oat
Type: in vivo, Avena fatua
Conditions: Preemergence, Rate 250 g/ha; scale 0 to 10, 0 is no effect, 10 is complete control
QUANTITY_MEASURED: Wild oats plant response rating
No unit in the answer, only the number.

>  <STRUCTURE_SMILES>
C=C(C)CCn1c(=O)on(C(=O)N(c2ccc(F)cc2)C(C)C)c1=O

>  <Wild oats plant response rating>
4

$$$$
>  <STRUCTURE_SMILES>
CCCn1c(=O)on(C(=O)N(c2ccc(F)cc2F)C(C)C)c1=O

>  <Wild oats plant response rating>
10

$$$$
>  <STRUCTURE_SMILES>
CC(C)N(C(=O)n1oc(=O)n(CC2=NOCC2)c1=O)c1ccc(F)cc1

>  <Wild oats plant response rating>
3

$$$$
>  <STRUCTURE_SMILES>
Cc1nc(C)c(Cn2c(=O)on(C(=O)N(c3ccc(F)cc3)C(C)C)c2=O)s1

>  <Wild oats plant response rating>
5

$$$$

Kindly review the next compound as well.
Task: Item CCc1cccc(C)c1-n1c(=O)on(C(=O)N(c2ccc(F)cc2)C(C)C)c1=O has what recorded Wild oats plant response rating?
Result: 3
